- target.or.test.system: HIV-1 Env of 0260.v5.c36 (HIV-1)
- procedure.details: cell-based or functional assay
Each entry below carries its reported neutralization IC50.

Solved cases (2 shown):
binder="CAP256-VRC26.08 (antibody, V domains shown) VH: EVQLVESGGGVVQPGRSLTLSCAASQFTFSNYGMHWVRQAPGKGLEWVASVSNDGTKKYHGDSVWGRFTISRDNSKNTLFLQMSSLRAEDTAVYFCVRDQREDECEEWWSDYYDFGRELPCRKFRGLGLAGIFDIWGHGTMVTVSS VL: QSALTQPPSVSAAPGQKVTISCSGNSSNIGNNFVSWYQQVPGTAPKLLLYETYRRPSGIPDRFSGSKSGTSATLAITGLQTGDEADYYCTVWGVRKGVGAVFGTGTKVTVLG" assay_endpoint="neutralization IC50" recorded_result="> 50 µg/mL"
binder="CAP256-VRC26.04 (antibody, V domains shown) VH: EVQLVESGGGVVQPGKSLRLSCAASQFSFNRYGMHWVRQAPGKGLEWVAAISYDGTDKYHADKVWGRFTISRDNSKNTLYLQMNSLRAEDTALYYCAKDLREDECEEWWSDYYDFGKQLPCRKSRGVAGIFDKWGQGTMVIVSS VL: QPVLTQPPSVSAAPGQKVTISCSGSSSNIGNNFVSWYQQRPGTAPSLLIYETNKRPSGIPDRFSGSKSATSATLAITGLQTGDEADYYCATWAASLTSARVFGTGTKVIVSG" assay_endpoint="neutralization IC50" recorded_result="> 50 µg/mL"

For the next question, use this binder.
What value of measured neutralization IC50 is listed for CAP256-VRC26.02 (antibody, V domains shown) VH: EVQLVESGGGVVQPGRSLRLSCAASQFSFGNYGMHWVRQAPGKGLEWVAAISFAGTKTNYADSVKGRFTISRDNSKNTVYLQMNSLRAEDTALYFCAKDIREYECEYWTSDYYDFGRPQPCIDSRGVVGTFDVWGQGTMVTVSS VL: QSVLTQPPSVSAAPGQKVTISCSGSNSNIGNKDVSWYQQIPATAPKLLIYENNKRPSGISDRFSGSKSGTSATLAITGLQTGDEADYYCATWDGRVSVIGTGTNVIVLG ? > 50 µg/mL
